- protocolDetails: acute toxicity in male and female mice i.v.
- Assay type: in vivo
- measurementContext: mouse, in vivo, iv, male and female mice, death within 14 days, range in parentheses
recordedMetric: LD50 at 336 h (mg/kg)
Field: numeric (mg/kg). Do not append units.

Request the reported LD50 at 336 h associated with CC(C)NCC(O)c1ccc(N)c(C#N)c1 (single isomer, unassigned; (-)) [(-)-Cimaterol] 74.8
